- system-name: UniProt Q9NPD5
- Sequence (Q9NPD5 whole entry): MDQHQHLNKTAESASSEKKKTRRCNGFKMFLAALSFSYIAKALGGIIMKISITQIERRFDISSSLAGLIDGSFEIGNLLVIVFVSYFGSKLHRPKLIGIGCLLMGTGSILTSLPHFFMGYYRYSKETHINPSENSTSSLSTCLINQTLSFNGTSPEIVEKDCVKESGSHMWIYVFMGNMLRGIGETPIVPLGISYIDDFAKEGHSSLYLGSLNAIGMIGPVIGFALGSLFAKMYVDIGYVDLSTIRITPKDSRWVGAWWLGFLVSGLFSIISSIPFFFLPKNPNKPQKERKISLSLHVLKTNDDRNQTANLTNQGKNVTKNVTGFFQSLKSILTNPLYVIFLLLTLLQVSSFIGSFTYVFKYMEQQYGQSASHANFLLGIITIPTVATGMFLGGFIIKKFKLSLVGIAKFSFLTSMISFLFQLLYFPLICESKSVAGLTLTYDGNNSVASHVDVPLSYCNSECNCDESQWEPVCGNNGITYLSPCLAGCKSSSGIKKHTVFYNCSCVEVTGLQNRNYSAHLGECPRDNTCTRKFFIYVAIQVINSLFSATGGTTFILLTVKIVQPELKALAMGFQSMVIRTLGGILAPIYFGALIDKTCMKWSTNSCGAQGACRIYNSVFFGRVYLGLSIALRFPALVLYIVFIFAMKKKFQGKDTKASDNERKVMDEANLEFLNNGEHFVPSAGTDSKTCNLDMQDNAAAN
- conditions: chinese hamster, cho, 10 µM
assay-metric: residual activity
Put down the number, then write its unit next to it.

Record CC(C)=CCC[C@]1(C)C=Cc2c(O)c3c(c(CC=C(C)C)c2O1)O[C@]12C(=C[C@@H]4C[C@H]1C(C)(C)O[C@@]2(C/C=C(/C)C(=O)O)C4=O)C3=O [GAMBOGIC ACID] , field residual activity: 65.8%

Record CC(=O)OCC(COC(C)=O)OC(C)=O [TRIACETIN] , field residual activity: 86.74%

Record C/C=C(/C)C(=O)O[C@H]1CC[C@@]2(C)[C@@H]3CC[C@H]4[C@]5(O)C[C@H](O)[C@@]6(O)[C@@H](CN7C[C@@H](C)CC[C@H]7[C@@]6(C)O)[C@]5(O)C[C@@]42O[C@]13O [CEVADINE] , field residual activity: 84.71%

----------
- system-name: Solute carrier organic anion transporter family member 1B1 (Homo sapiens, UniProt Q9Y6L6)
- Sequence (Q9Y6L6 whole entry): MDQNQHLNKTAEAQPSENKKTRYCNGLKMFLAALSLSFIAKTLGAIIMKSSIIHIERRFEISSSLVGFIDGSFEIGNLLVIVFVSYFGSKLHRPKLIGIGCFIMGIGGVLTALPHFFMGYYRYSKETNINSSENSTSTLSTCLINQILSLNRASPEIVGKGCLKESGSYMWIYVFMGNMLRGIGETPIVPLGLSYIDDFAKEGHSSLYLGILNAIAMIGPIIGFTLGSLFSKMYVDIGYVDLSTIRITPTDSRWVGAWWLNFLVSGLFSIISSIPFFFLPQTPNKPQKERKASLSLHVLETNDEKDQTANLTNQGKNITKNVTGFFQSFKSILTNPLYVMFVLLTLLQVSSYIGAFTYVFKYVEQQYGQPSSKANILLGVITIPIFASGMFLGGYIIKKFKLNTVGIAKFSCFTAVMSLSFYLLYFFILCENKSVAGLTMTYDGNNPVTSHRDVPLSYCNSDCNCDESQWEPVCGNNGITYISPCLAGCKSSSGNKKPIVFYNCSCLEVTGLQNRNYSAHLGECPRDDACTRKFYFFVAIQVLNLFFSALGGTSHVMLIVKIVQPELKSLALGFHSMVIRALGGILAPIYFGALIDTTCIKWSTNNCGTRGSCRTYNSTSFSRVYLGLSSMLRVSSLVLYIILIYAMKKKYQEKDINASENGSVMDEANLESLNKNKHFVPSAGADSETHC
- conditions: chinese hamster, cho, 10 µM
assay-metric: residual activity

Record C=C1C2CC[C@@]3(C)[C@H](c4ccoc4)OC(=O)C[C@]13O[C@H]1CC(=O)C(C)(C)[C@H](C(O)C(=O)OC)[C@@]21C (some centres not stated) [6-HYDROXYANGOLENSIC ACID METHYL ESTER] , field residual activity: 23.65%

Record C#CCCCCCCCCCCCC(=O)CC(O)COC(C)=O (configuration not stated) [AVOCADYNONE ACETATE] , field residual activity: 124.8%

Record C[n+]1cccc(C(=O)[O-])c1 , field residual activity: 111.6%

Record CC(=O)OC[C@H]1O[C@@H](Oc2cc(OC(C)=O)c3c(=O)cc(-c4ccc(OC(C)=O)cc4)oc3c2)[C@H](OC(C)=O)[C@@H](OC(C)=O)[C@@H]1OC(C)=O [COSMOSIIN HEXAACETATE] , field residual activity: 95.2%

Record COc1ccc2ccc(=O)oc2c1CC=C(C)C , field residual activity: 227.1%

Record CC(=O)O[C@H]1CC[C@@]23C(=O)O[C@]45CC[C@H](C6=CC(=O)OC6)[C@@]4(C)CC[C@H]2[C@H]5CC[C@]3(O)C1 , field residual activity: 59.99%

Record CN1C(C(=O)Nc2ccccn2)=C(O)c2ccccc2S1(=O)=O , field residual activity: 68.52%

----------
- system-name: Solute carrier organic anion transporter family member 1B1 (Homo sapiens, UniProt Q9Y6L6)
- conditions: chinese hamster, cho, 10 µM
assay-metric: residual activity (%)
Write down the numeric answer in % and omit the unit.

Record CC(=O)O[C@H]1C[C@@H](OC(C)=O)C(C)(C)[C@@H]2C[C@@H](OC(C)=O)[C@]3(C)[C@H]([C@H](OC(C)=O)C[C@@]4(C)[C@H](c5ccoc5)OC(=O)[C@H]5O[C@@]534)[C@@]12C , field residual activity: 20.57

Record CN(C)c1ccc(O)c2c1C[C@H]1C[C@H]3[C@H](N(C)C)C(O)=C(C(N)=O)C(=O)[C@@]3(O)C(O)=C1C2=O.Cl [MINOCYCLINE HYDROCHLORIDE] , field residual activity: 100.7

Record CC(C)(C)NCC(O)c1cc(Cl)c(N)c(Cl)c1.Cl (stereo unspecified) [CLENBUTEROL HYDROCHLORIDE] , field residual activity: 78.76

Record O=C(O[C@@H]1Cc2c(O)cc(O)cc2O[C@@H]1c1cc(O)c(O)c(O)c1-c1c([C@H]2Oc3cc(O)cc(O)c3C[C@H]2OC(=O)c2cc(O)c(O)c(O)c2)cc(O)c(O)c1O)c1cc(O)c(O)c(O)c1 [THEASINENSIN A] , field residual activity: 61.1

Record COc1c(N2CCNC(C)C2)c(F)cc2c(=O)c(C(=O)O)cn(C3CC3)c12 (stereo unspecified) [GATIFLOXACIN] , field residual activity: 121.9

Record COc1ccc2c(=O)cc(-c3ccccc3OC)oc2c1 [7,2'-DIMETHOXYFLAVONE] , field residual activity: 95.82

Record O=C(/C=C/c1ccc(O)cc1)c1ccc(O)cc1O [ISOLIQUIRITIGENIN] , field residual activity: 210.9

Record CC(=O)Nc1ccc(OCC(O)CNC(C)C)cc1 (stereo unspecified) [PRACTOLOL] , field residual activity: 107.1

Record CC(C(=O)O)c1ccc(N2Cc3ccccc3C2=O)cc1 (stereo unspecified) [INDOPROFEN] , field residual activity: 97.2

Record O=C1NC(=O)C(=O)C(=O)N1 [ALLOXAN] , field residual activity: 118.2

Record CC(C)NNC(=O)c1ccncc1.O=S(=O)(O)O [IPRONIAZID SULFATE] , field residual activity: 122.7

Record C=C1C(=O)O[C@@H]2C[C@@]3(C)CCC[C@H](C)C3=C[C@H]12 [HELENINE] , field residual activity: 116

Record C[C@@H]1C[C@H]2CC(=O)[C@H]3CCCN4CCCC2[C@]34C1.[O-][Cl+3]([O-])([O-])O (stereo partly specified) , field residual activity: 104.6

Record Oc1cc(O)c2c(c1)O[C@H](c1ccc(O)c(O)c1)[C@H](O)C2 [(-)-EPICATECHIN] , field residual activity: 80.37

Record COc1c(O)cc2oc3cc(O)c(CC=C(C)C)c(O)c3c(=O)c2c1CC=C(C)C [MANGOSTIN] , field residual activity: 150.2

Record CC(=O)O[C@]1(C(C)=O)CC[C@H]2[C@@H]3C[C@H](C)C4=CC(=O)CC[C@]4(C)[C@H]3CC[C@@]21C [MEDROXYPROGESTERONE ACETATE] , field residual activity: 105.9

----------
Please respond with reported residual activity for every item in the list.
- system-name: Solute carrier organic anion transporter family member 1B1 (Homo sapiens)
- conditions: chinese hamster, cho, 10 µM
Write down the numeric answer in % and omit the unit.

Record Cl.NCCc1cc(O)c(O)cc1O [OXIDOPAMINE HYDROCHLORIDE] , field residual activity: 80.99

Record CCc1ccc2c(O)c3c(cc2c1C(=O)OC)C(=O)c1c(O)ccc(O)c1C3=O [BISANHYDRORUTILANTINONE] , field residual activity: 104.1

Record O=C1C=C2CC3(O)COc4cc(O)ccc4C3=C2C=C1O (centres undefined) [BRAZILEIN] , field residual activity: 96.33

Record COc1cc(OC)c2c(c1)O[C@H](c1ccc(OC)c(OC)c1)[C@@H](O)C2 , field residual activity: 123.7

Record Cl.NNc1nncc2ccccc12 [HYDRALAZINE HYDROCHLORIDE] , field residual activity: 87.74

Record C/C=C/c1ccc(OC)cc1 [ANETHOLE] , field residual activity: 89.5

Record CN(C)CCC[C@@]1(c2ccc(F)cc2)OCc2cc(C#N)ccc21.O=C(O)C(=O)O [ESCITALOPRAM OXALATE] , field residual activity: 102.3

Record O=C(O[C@@H]1Cc2c(O)cc(O)cc2O[C@@H]1c1cc(O)c(=O)c2c(O)c(O)cc([C@H]3Oc4cc(O)cc(O)c4C[C@H]3O)c2c1)c1cc(O)c(O)c(O)c1 [THEAFLAVIN MONOGALLATES] , field residual activity: 89.76

Record COc1ccc(-c2coc3c(OC)c(OC)cc(OC)c3c2=O)cc1 [ISOTECTORIGENIN TRIMETHYL ETHER] , field residual activity: 133.5

Record O=C1C=C2C=C[C@@H]3C[C@@]2(O1)[C@H]1CCCCN31 [SECURININE] , field residual activity: 92.42

Record COc1cc(/C=C/CO)ccc1O [CONIFERYL ALCOHOL] , field residual activity: 49.7

Record C[C@]12CC[C@H]3C(=CCc4cc(O)ccc43)[C@@H]1CCC2=O [EQUILIN] , field residual activity: 88.55

Record COc1ccc([C@H]2COc3c(ccc(O)c3OC)C2)c(OC)c1O [DUARTIN (-)] , field residual activity: 88.51

Record CS(=O)(=O)OCCCCOS(C)(=O)=O [BUSULFAN] , field residual activity: 113.7

Record Nc1nc(N)c2nc(CNc3ccc(C(=O)N[C@@H](CCC(=O)O)C(=O)O)cc3)cnc2n1 [AMINOPTERIN] , field residual activity: 89.56

Record Cc1cc(NC(=O)C2=C(O)c3ccccc3S(=O)(=O)N2C)no1 [ISOXICAM] , field residual activity: 111.2

Record NC(=O)N1c2ccccc2CC(=O)c2ccccc21 [OXCARBAZEPINE] , field residual activity: 71.5

Record C=C1C([C@]2(C)C(CC(=O)OC)[C@@](C)(COC(C)=O)OC(=O)C[C@H]2OC(C)=O)[C@@H](OC=O)[C@@H](OC(=O)C(O)C(C)CC)[C@@]2(C)[C@H](c3ccoc3)CC(=O)C12O (some centres undefined) , field residual activity: 28.24

Record CC1=CCc2c(cc3oc(C)cc(=O)c3c2O)OC1 [PTAEROXYLIN] , field residual activity: 104.1

Record COC(=O)C[C@H]1C(C)(C)C(=O)[C@@H]2CC3=C4CC(=O)O[C@@H](c5ccoc5)[C@]4(C)CC[C@@H]3[C@@]1(C)C2=O [MEXICANOLIDE] , field residual activity: 44.09

Record COc1ccc(C(=O)CC(=O)c2ccc(C(C)(C)C)cc2)cc1 [AVOBENZONE] , field residual activity: 124

Record CC(=O)N[C@@H]1[C@@H](O)[C@H](O)[C@@H](CO)O[C@H]1O [N-ACETYLGLUCOSAMINE] , field residual activity: 48.98

Record CC[C@]12CCCN3CCc4c(n(c5ccccc45)[C@@](O)(C(=O)OC)C1)[C@@H]32 [VINCAMINE] , field residual activity: 72.87

Record CC(=O)Nc1nnc(S(N)(=O)=O)s1 [ACETAZOLAMIDE] , field residual activity: 90.74

Record CCc1nc(N)nc(N)c1-c1ccc(Cl)cc1 [PYRIMETHAMINE] , field residual activity: 72.59

Record C[N+]1(C)[C@@H]2CC[C@H]1C[C@@H](OC(=O)C(O)c1ccccc1)C2.[Br-] (some centres undefined) [HOMATROPINE METHYLBROMIDE] , field residual activity: 77.55

Record COc1ccc2c(c1)[C@@]1(C)CCC(=O)C[C@@H]1CC2 , field residual activity: 131.2

Record CC=CC(=O)N(CC)c1ccccc1C , field residual activity: 71.83

Record NS(=O)(=O)c1cc(C2(O)NC(=O)c3ccccc32)ccc1Cl (centres undefined) [CHLORTHALIDONE] , field residual activity: 62.41

Record CN(C)CCN(Cc1ccccc1)c1ccccn1.O=C(O)CC(O)(CC(=O)O)C(=O)O [TRIPELENNAMINE CITRATE] , field residual activity: 81.25

Record O=C(/C=C/c1ccccc1)c1ccc(O[C@@H]2O[C@H](CO)[C@@H](O)[C@H](O)[C@H]2O)cc1O [2',4'-DIHYDROXYCHALCONE 4'-GLUCOSIDE] , field residual activity: 99.51

Record C=C1[C@@H]([C@@]2(C)C=CC(=O)C(C)(C)[C@@H]2CC(=O)OC)CC[C@@]2(C)[C@H](c3ccoc3)OC(=O)[C@H]3O[C@]132 [ANDIROBIN] , field residual activity: 103.8

Record CCOc1ccc2c(c1)C(C)=CC(C)(C)N2 [E324] , field residual activity: 108.3

Record COc1cc(-c2coc3cc(OC)c(OC)c(OC)c3c2=O)cc(OC)c1OC [IRIGENIN TRIMETHYL ETHER] , field residual activity: 216.2

// provenance: ChEMBL document CHEMBL3039007
